Source of measurements: patent US10653688B2

Target: recombinant GSK3β kinase (Homo sapiens (Human))
Sequence (P49841 whole entry): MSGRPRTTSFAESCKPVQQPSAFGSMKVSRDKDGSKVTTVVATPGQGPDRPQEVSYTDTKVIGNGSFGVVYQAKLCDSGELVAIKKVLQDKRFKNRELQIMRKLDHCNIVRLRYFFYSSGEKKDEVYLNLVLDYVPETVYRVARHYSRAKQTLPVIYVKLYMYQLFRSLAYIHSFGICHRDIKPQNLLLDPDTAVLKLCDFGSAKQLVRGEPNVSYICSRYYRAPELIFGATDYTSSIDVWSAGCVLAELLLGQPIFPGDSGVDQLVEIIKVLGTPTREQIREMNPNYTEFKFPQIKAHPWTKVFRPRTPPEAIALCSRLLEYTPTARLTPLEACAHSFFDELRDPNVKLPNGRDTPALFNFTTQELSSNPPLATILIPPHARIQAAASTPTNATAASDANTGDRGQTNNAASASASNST
Test: GSK3β kinase assay (Ser/Thr 09 peptide Z-lyte, FRET);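 note: FRET read-out as coumarin over fluorescein emission ratio, compounds incubated one hour at room temperature, IC50 from dose-response curve fit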
Assay type: biochemical
Settings: GSK3β kinase; head says EC50, method says IC50; ATP 46 μM
quantityKind: EC50

• O=C(Nc1cc2cc(-c3cncc(CN4CCCC4)c3)ccc2cn1)c1ccc(F)cc1 = > 10 µM
• CC(C)n1cc(C(=O)Nc2cc3cc(-c4cncc(NC5CCN(C)CC5)n4)ccc3cn2)cn1 = > 10 µM
• Nc1cncc(-c2ccc3cnc(NC(=O)c4coc(C5CCNCC5)n4)cc3c2)c1 = > 10 µM

====

Target: recombinant DYRK1A kinase (Homo sapiens (Human), UniProt Q13627)
Assay: DYRK1A kinase assay (Ser/Thr 18 peptide Z-lyte, FRET)
Details: DYRK1A kinase; head says EC50, method says IC50; ATP 30 μM
Binary call on EC50 with cut-off 10 nM: strictly below means class 1, and equality or higher means class 0.

• Cc1cc2ncc(-c3ccc4cnc(NC(=O)c5ccnc(N6CCN(C)CC6)c5)cc4c3)cc2[nH]1 [Compound 135] = class 0
• CN1CCN(CC(=O)Nc2cc3cc(-c4ccc(F)nc4)ccc3cn2)CC1 [Compound 21] = class 0
• CC(=O)Nc1cncc(-c2ccc3cnc(NC(=O)C4CCN(C)CC4)cc3c2)c1 [Compound 47] = class 1
• O=C(CN1CCOCC1)Nc1cc2cc(-c3cccnc3)c(F)cc2cn1 [Compound 144] = class 1
• CN1CCN(c2cc(C(=O)Nc3cc4cc(-c5cncc(N6CCCC6)n5)ccc4cn3)ccn2)CC1 [Compound 123] = class 0
• Nc1cncc(-c2ccc3cnc(NC(=O)c4ccc(F)cc4)cc3c2)c1 [Compound 36] = class 1
• CCN(CC)c1cncc(-c2ccc3cnc(NC(=O)c4ccnc(N5CCN(C)CC5)c4)cc3c2)n1 [Compound 121] = class 1
• CN1CCCN(CC(=O)Nc2cc3cc(-c4cccnc4)ccc3cn2)CC1 [Compound 12] = class 0
• CN1CCN(c2cc(C(=O)Nc3cc4cc(-c5cncc6[nH]ccc56)ccc4cn3)ccn2)CC1 [Compound 131] = class 1
• CN1CCC(F)(C(=O)Nc2cc3cc(-c4cnccn4)ccc3cn2)CC1 [Compound 76] = class 0
• O=C(Nc1cc2cc(-c3cnccn3)ccc2cn1)c1ccc(CN2CCOCC2)cc1 [Compound 83] = class 1
• CN1CCC(n2cc(C(=O)Nc3cc4cc(-c5cncc6[nH]ccc56)ccc4cn3)cn2)CC1 [Compound 128] = class 1
• CN1CCC(C(=O)Nc2cc3cc(-c4ccccn4)ccc3cn2)CC1 [Compound 3] = class 0
• O=C(Nc1cc2cc(-c3cncc(NC4CCNCC4)n3)ccc2cn1)C1CCCCC1 [Compound 44] = class 1
• CC(C)Nc1cncc(-c2ccc3cnc(NC(=O)c4ccnc(N5CCN(C)CC5)c4)cc3c2)c1 [Compound 43] = class 1
• O=C(Nc1cc2cc(-c3cncc(NC4CCNCC4)n3)ccc2cn1)c1ccc(F)cc1 [Compound 110] = class 1
• CN1CCN(c2cc(C(=O)Nc3cc4cc(-c5ccc(N(C)C)nc5)ccc4cn3)ccn2)CC1 [Compound 49] = class 0
• Cc1nccn1CC(=O)Nc1cc2cc(-c3cccnc3)ccc2cn1 [Compound 14] = class 1
